Here the recorded CD3-recruiting activity (CD3-positive proportion, N=3), CD3-stably expressing 293T cells is given for each entry.
- tested.system: CD3 subunits (CD3E, CD3G, CD3D, CD3Z) (human, UniProt P07766 23-207; P09693 23-182; P04234 22-171; P20963 22-164)
- Sequence (P07766 23-207, chain 1 of 4): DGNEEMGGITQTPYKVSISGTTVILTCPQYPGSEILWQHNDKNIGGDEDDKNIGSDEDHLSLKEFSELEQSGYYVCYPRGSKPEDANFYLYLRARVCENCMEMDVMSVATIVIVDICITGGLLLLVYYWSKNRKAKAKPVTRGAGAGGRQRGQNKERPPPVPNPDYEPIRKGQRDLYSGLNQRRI
- Sequence (P09693 23-182, chain 2 of 4): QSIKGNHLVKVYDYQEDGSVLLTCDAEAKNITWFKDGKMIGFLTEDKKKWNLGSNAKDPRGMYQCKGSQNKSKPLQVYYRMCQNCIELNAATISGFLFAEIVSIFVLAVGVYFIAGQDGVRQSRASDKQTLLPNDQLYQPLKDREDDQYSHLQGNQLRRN
- Sequence (P04234 22-171, chain 3 of 4): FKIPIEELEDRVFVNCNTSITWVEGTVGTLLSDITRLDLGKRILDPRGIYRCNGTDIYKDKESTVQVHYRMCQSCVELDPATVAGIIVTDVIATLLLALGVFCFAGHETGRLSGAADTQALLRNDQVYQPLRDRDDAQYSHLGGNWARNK
- Sequence (P20963 22-164, chain 4 of 4): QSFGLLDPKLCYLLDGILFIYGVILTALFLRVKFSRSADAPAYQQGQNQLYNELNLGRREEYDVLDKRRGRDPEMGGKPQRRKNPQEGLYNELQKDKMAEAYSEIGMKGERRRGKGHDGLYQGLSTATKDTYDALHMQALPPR
- test.details: cell-based or functional assay
parameter: CD3-recruiting activity (CD3-positive proportion, N=3), CD3-stably expressing 293T cells

>>> obs_value("modified TCR consisting of β11 and α9 (TCR) TCR alpha: FNNSIIPEDTFFPSPESSCDVKLVEKSFETDTNLNFQNLSVIGFRILLLKVAGFNLLMTLRLWSS TCR beta: EWTQDRAKPVTQIVSAEAWGRADCGFTSESYQQGVLSATILYEILLGKATLYAVLVSALVLMAMVKRKDSRG")
"≥ 20%"
>>> obs_value("modified TCR consisting of β10 and α4 (TCR) TCR alpha: DVYITDKTVLDMRSMDFKSNSAVAWSNKSDFACANAFNNSIIPEDTFFPSPESSCDVKLVEKSFETDTNLNFQNLSVIGFRILLLKVAGFNLLMTLRLWSS TCR beta: YGLSENDEWTQDRAKPVTQIVSAEAWGRADCGFTSESYQQGVLSATILYEILLGKATLYAVLVSALVLMAMVKRKDSRG")
"≥ 20%"
>>> obs_value("modified TCR consisting of β7 and α10 (TCR) TCR alpha: IPEDTFFPSPESSCDVKLVEKSFETDTNLNFQNLSVIGFRILLLKVAGFNLLMTLRLWSS TCR beta: RLRVSATFWQNPRNHFRCQVQFYGLSENDEWTQDRAKPVTQIVSAEAWGRADCGFTSESYQQGVLSATILYEILLGKATLYAVLVSALVLMAMVKRKDSRG")
"≥ 20%"
>>> obs_value("modified TCR consisting of β2 and αCR (TCR) TCR alpha: NIQNPDPAVYQLRDSKSSDKSVCLFTDFDSQTNVSQSKDSDVYITDKTVLDMRSMDFKSNSAVAWSNKSDFACANAFNNSIIPEDTFFPSPESSCDVKLVEKSFETDTNLNFQNLSVIGFRILLLKVAGFNLLMTLRLWSS TCR beta: ATLVCLATGFYPDHVELSWWVNGKEVHSGVSTDPQPLKEQPALNDSRYCLSSRLRVSATFWQNPRNHFRCQVQFYGLSENDEWTQDRAKPVTQIVSAEAWGRADCGFTSESYQQGVLSATILYEILLGKATLYAVLVSALVLMAMVKRKDSRG")
"≥ 20%"
>>> obs_value("modified TCR consisting of β10 and α5 (TCR) TCR alpha: LDMRSMDFKSNSAVAWSNKSDFACANAFNNSIIPEDTFFPSPESSCDVKLVEKSFETDTNLNFQNLSVIGFRILLLKVAGFNLLMTLRLWSS TCR beta: YGLSENDEWTQDRAKPVTQIVSAEAWGRADCGFTSESYQQGVLSATILYEILLGKATLYAVLVSALVLMAMVKRKDSRG")
"≥ 20%"
>>> obs_value("modified TCR consisting of β7 and α9 (TCR) TCR alpha: FNNSIIPEDTFFPSPESSCDVKLVEKSFETDTNLNFQNLSVIGFRILLLKVAGFNLLMTLRLWSS TCR beta: RLRVSATFWQNPRNHFRCQVQFYGLSENDEWTQDRAKPVTQIVSAEAWGRADCGFTSESYQQGVLSATILYEILLGKATLYAVLVSALVLMAMVKRKDSRG")
"≥ 20%"
>>> obs_value("modified TCR consisting of β12 and α4 (TCR) TCR alpha: DVYITDKTVLDMRSMDFKSNSAVAWSNKSDFACANAFNNSIIPEDTFFPSPESSCDVKLVEKSFETDTNLNFQNLSVIGFRILLLKVAGFNLLMTLRLWSS TCR beta: AKPVTQIVSAEAWGRADCGFTSESYQQGVLSATILYEILLGKATLYAVLVSALVLMAMVKRKDSRG")
"≥ 20%"
>>> obs_value("modified TCR consisting of β11 and α8 (TCR) TCR alpha: CANAFNNSIIPEDTFFPSPESSCDVKLVEKSFETDTNLNFQNLSVIGFRILLLKVAGFNLLMTLRLWSS TCR beta: EWTQDRAKPVTQIVSAEAWGRADCGFTSESYQQGVLSATILYEILLGKATLYAVLVSALVLMAMVKRKDSRG")
"≥ 20%"
>>> obs_value("modified TCR of the combination of βCR and αCR (TCR) TCR alpha: NIQNPDPAVYQLRDSKSSDKSVCLFTDFDSQTNVSQSKDSDVYITDKTVLDMRSMDFKSNSAVAWSNKSDFACANAFNNSIIPEDTFFPSPESSCDVKLVEKSFETDTNLNFQNLSVIGFRILLLKVAGFNLLMTLRLWSS TCR beta: EDLKNVFPPEVAVFEPSEAEISHTQKATLVCLATGFYPDHVELSWWVNGKEVHSGVSTDPQPLKEQPALNDSRYCLSSRLRVSATFWQNPRNHFRCQVQFYGLSENDEWTQDRAKPVTQIVSAEAWGRADCGFTSESYQQGVLSATILYEILLGKATLYAVLVSALVLMAMVKRKDSRG")
"≥ 80%"
>>> obs_value("modified TCR of the combination of βCR and α7 (TCR) TCR alpha: SNKSDFACANAFNNSIIPEDTFFPSPESSCDVKLVEKSFETDTNLNFQNLSVIGFRILLLKVAGFNLLMTLRLWSS TCR beta: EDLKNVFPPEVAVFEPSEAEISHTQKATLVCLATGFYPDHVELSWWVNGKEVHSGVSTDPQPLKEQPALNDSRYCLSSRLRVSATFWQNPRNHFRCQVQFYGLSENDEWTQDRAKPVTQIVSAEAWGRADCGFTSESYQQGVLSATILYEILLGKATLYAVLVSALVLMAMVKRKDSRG")
"≥ 80%"
